assay: Proportions of cis and trans at the photostationary state in DMSO from absorbance spectra (Ernst Fischer method); type: physicochemical; details: 470 nm
Examples of compounds with documented %trans at the photostationary state follow.

[[record]]
compound = "Cc1cc(/N=N/c2cccc(-c3ccc(C(=O)O)cc3)c2)ccc1OCC(O)C(C)(C)C (stereo not shown) [Compound 11a]"
parameter = "%trans at the photostationary state"
observed_measurement = "70,20%"

[[record]]
compound = "Cc1cc(OCC(O)C(C)(C)C)ccc1/N=N/c1cccc(-c2ccc(CO)cc2C)c1 (stereo not shown) [Compound 12d]"
parameter = "%trans at the photostationary state"
observed_measurement = "67,86%"

[[record]]
compound = "Cc1cc(/N=N/c2cccc(-c3ccc(C(=O)O)cc3C)c2)ccc1OCC(O)C(C)(C)C (stereo not shown) [Compound 11c]"
parameter = "%trans at the photostationary state"
observed_measurement = "68,51%"


Please examine the following record next.
Input line: So what does the record say about %trans at the photostationary state for Cc1cc(OCC(O)C(C)(C)C)ccc1/N=N/c1cccc(-c2ccc(C(=O)O)cc2C)c1 (stereo not shown) [Compound 11d] ?
Output line: 71,89%

----------
experiment: Proportions of cis and trans at the photostationary state in DMSO from absorbance spectra (Ernst Fischer method); assay type: physicochemical; details: 380 nm
Listing: %trans at the photostationary state of selected compounds

Below, 7 compounds whose answers are already recorded.
[[record]]
compound = "COC(=O)c1ccc(-c2cccc(/N=N/c3ccc(OCC(O)C(C)(C)C)c(C)c3)c2)c(C)c1 (centres unmarked) [Compound 10c]"
observed_measurement = "4,38%"

[[record]]
compound = "Cc1cc(/N=N/c2cccc(-c3ccc(C(=O)O)cc3)c2)ccc1OCC(O)C(C)(C)C (centres unmarked) [Compound 11a]"
observed_measurement = "7,19%"

[[record]]
compound = "Cc1cc(OCC(O)C(C)(C)C)ccc1/N=N/c1cccc(-c2ccc(C(=O)O)cc2C)c1 (centres unmarked) [Compound 11d]"
observed_measurement = "4,42%"

[[record]]
compound = "Cc1cc(OCC(O)C(C)(C)C)ccc1/N=N/c1cccc(-c2ccc(CO)cc2C)c1 (centres unmarked) [Compound 12d]"
observed_measurement = "4,23%"

[[record]]
compound = "Cc1cc(/N=N/c2cccc(-c3ccc(CO)cc3)c2)ccc1OCC(O)C(C)(C)C (centres unmarked) [Compound 12a]"
observed_measurement = "4,39%"

[[record]]
compound = "Cc1cc(OCC(O)C(C)(C)C)ccc1/N=N/c1cccc(-c2ccc(CO)cc2)c1 (centres unmarked) [Compound 12b]"
observed_measurement = "4,85%"

[[record]]
compound = "Cc1cc(OCC(O)C(C)(C)C)ccc1N=Nc1cccc(-c2ccc(C(=O)O)cc2)c1 (centres unmarked) [Compound 11b]"
observed_measurement = "4,38%"


Input line: Returns the measured %trans at the photostationary state for the input compound. Input: COC(=O)c1ccc(-c2cccc(/N=N/c3ccc(OCC(O)C(C)(C)C)cc3C)c2)cc1 (centres unmarked) [Compound 10b]
Output line: 3,52%

----------
biological target: VDR (Homo sapiens, UniProt P11473); test: Luminescent proximity homogeneous assay (AlphaScreen): interaction of purified VDR, RxR and TRAP220 coactivator fragment; assay type: biochemical; details: after illumination (365 nm) for 3 min; normalized to maximum response of LSN2148936 (100%); mean ± SEM
Sequence (P11473 whole entry, the tested form may be a part): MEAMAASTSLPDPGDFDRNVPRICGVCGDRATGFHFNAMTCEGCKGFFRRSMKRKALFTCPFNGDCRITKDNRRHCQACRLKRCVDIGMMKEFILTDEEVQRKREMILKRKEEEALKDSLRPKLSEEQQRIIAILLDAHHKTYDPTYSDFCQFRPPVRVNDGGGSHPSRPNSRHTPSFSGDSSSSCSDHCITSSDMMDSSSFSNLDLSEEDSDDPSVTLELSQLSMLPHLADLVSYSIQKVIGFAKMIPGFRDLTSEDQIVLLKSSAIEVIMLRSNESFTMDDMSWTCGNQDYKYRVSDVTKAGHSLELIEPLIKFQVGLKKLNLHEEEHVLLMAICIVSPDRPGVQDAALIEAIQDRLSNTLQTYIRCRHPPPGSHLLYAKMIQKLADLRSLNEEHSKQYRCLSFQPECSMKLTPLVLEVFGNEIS
Sequence (P19793 whole entry partner, the tested form may be a part): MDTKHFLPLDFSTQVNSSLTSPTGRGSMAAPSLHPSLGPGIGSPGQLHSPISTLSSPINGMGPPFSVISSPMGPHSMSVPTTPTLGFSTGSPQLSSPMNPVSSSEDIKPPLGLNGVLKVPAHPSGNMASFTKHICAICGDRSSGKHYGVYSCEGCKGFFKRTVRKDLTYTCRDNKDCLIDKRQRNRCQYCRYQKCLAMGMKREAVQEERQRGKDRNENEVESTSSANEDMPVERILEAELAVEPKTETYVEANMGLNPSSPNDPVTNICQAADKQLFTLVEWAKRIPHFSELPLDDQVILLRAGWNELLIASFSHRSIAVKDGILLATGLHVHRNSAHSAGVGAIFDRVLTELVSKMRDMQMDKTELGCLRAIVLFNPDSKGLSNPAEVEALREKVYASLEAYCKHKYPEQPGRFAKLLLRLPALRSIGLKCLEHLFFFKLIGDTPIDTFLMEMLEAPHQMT
Sequence (Q15648 whole entry partner, the tested form may be a part): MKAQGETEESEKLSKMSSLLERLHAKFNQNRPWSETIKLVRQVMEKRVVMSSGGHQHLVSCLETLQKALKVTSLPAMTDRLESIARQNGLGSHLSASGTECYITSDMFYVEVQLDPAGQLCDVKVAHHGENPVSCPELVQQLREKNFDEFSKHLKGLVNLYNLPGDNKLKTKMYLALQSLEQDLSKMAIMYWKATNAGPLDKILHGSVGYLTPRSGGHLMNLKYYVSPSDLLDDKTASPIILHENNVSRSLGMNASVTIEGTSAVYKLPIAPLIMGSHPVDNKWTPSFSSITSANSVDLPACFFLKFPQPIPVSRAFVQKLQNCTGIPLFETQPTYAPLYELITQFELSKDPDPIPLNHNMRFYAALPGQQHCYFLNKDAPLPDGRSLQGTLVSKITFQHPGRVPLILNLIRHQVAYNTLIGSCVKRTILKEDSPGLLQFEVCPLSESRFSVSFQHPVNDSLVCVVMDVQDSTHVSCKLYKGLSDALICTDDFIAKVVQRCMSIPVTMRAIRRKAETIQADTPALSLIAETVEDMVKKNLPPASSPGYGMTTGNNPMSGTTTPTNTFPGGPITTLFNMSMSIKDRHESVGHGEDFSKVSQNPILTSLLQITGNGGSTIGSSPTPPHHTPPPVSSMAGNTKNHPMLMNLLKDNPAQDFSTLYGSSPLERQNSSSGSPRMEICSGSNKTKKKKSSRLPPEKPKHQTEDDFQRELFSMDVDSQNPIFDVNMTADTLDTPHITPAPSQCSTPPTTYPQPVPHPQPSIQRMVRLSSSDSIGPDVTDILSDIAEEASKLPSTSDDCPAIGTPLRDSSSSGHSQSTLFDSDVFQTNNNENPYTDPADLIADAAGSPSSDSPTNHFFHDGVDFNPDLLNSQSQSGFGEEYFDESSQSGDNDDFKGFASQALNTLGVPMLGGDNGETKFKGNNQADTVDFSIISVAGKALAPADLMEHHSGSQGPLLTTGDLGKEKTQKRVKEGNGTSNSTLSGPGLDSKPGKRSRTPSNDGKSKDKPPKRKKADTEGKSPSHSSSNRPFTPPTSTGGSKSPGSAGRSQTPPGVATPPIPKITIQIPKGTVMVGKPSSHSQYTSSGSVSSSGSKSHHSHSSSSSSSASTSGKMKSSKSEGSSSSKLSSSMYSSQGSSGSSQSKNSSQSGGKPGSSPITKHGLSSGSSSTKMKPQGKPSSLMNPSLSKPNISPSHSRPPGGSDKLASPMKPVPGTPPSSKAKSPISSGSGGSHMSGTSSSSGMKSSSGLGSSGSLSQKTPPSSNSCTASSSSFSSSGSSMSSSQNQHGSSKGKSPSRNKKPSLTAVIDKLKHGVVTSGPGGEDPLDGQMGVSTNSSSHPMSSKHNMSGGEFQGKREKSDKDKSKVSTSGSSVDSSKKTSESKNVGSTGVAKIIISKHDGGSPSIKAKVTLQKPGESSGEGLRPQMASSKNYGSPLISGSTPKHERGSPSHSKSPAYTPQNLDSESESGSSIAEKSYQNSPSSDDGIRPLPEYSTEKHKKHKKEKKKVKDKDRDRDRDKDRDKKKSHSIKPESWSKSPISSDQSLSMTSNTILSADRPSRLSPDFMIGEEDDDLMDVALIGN
Dear colleague, classification is by Emax, with ranges listed here: low class = under 30%, middle class = from 30% up to 60%, high class = 60% and over

Completed entries (count: 2):
[[record]]
compound = "COC(=O)c1ccc(-c2cccc(/N=N/c3ccc(OCC(O)C(C)(C)C)cc3C)c2)cc1 (stereo not drawn) [Compound 10b]"
answer_label = "middle class"

[[record]]
compound = "CCC(CC)(c1ccc(CCC(O)C(C)(C)C)c(C)c1)c1ccc(C(=O)N(C)CC(=O)O)c(C)c1 (stereo not drawn) [LSN2148936, reference compound]"
answer_label = "high class"


Input line: For the record COC(=O)c1ccc(-c2cccc(/N=N/c3ccc(OCC(O)C(C)(C)C)c(C)c3)c2)c(C)c1 (stereo not drawn) [Compound 10c] , report the class its Emax corresponds to.
Output line: low class

Input line: # bin lookup: classify Cc1cc(/N=N/c2cccc(-c3ccc(C(=O)O)cc3C)c2)ccc1OCC(O)C(C)(C)C (stereo not drawn) [Compound 11c] by its Emax
Output line: high class

Input line: Bin? Cc1cc(OCC(O)C(C)(C)C)ccc1N=Nc1cccc(-c2ccc(C(=O)O)cc2)c1 (stereo not drawn) [Compound 11b]
Output line: high class

Input line: Using the reported Emax, which band applies to Cc1cc(OCC(O)C(C)(C)C)ccc1/N=N/c1cccc(-c2ccc(CO)cc2)c1 (stereo not drawn) [Compound 12b] ?
Output line: middle class

Input line: Sort COC(=O)c1ccc(-c2cccc(/N=N/c3ccc(OCC(O)C(C)(C)C)c(C)c3)c2)cc1 (stereo not drawn) [Compound 10a] into one of the categories.
Output line: low class

Input line: Which of the defined bands does the recorded Emax of Cc1cc(/N=N/c2cccc(-c3ccc(CO)cc3)c2)ccc1OCC(O)C(C)(C)C (stereo not drawn) [Compound 12a] sit within?
Output line: middle class

Input line: Looking at Cc1cc(OCC(O)C(C)(C)C)ccc1/N=N/c1cccc(-c2ccc(C(=O)O)cc2C)c1 (stereo not drawn) [Compound 11d] , which class would you pick?
Output line: high class
